Target: human platelet heparanase (Homo sapiens, UniProt Q9Y251)
Construct: 10 ng of purified human platelet heparanase; from tissue; host or cells: human platelets
Sequence (Q9Y251 158-543 limits assumed): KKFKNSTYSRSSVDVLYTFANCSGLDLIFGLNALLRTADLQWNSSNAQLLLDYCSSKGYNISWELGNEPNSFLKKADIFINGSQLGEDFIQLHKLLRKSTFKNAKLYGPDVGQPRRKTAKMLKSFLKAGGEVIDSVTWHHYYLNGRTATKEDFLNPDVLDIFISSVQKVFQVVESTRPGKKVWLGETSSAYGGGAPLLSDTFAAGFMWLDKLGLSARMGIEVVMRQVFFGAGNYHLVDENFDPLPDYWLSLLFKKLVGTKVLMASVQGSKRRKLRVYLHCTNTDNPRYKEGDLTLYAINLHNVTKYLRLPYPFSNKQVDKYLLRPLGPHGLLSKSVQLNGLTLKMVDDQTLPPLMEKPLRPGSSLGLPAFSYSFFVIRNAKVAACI
Sequence (Q9Y251 36-109 limits assumed): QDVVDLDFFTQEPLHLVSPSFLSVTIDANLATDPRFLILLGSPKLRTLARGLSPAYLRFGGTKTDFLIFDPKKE
Experiment: Heparanase inhibition, 3H-radiolabelled HS cleavage assay
Format: biochemical
Conditions: heparanase inhibition; read-out: EC50 (converted)
# Lookup of reported EC50 keyed by entry
metric: EC50 (µM)

• O=S(=O)(O)O[C@H]1[C@H](OS(=O)(=O)O)[C@@H](N(CCCCCCCCCN([C@H]2C=C[C@@H](OS(=O)(=O)O)[C@@H](OS(=O)(=O)O)[C@@H]2OS(=O)(=O)O)[C@H]2C=C[C@@H](OS(=O)(=O)O)[C@@H](OS(=O)(=O)O)[C@@H]2OS(=O)(=O)O)[C@H]2C=C[C@@H](OS(=O)(=O)O)[C@@H](OS(=O)(=O)O)[C@@H]2OS(=O)(=O)O)C=C[C@H]1OS(=O)(=O)O = 6.13
• O=S(=O)(O)O[C@H]1[C@H](OS(=O)(=O)O)[C@@H](N(CCCCCCCN([C@H]2C=C[C@@H](OS(=O)(=O)O)[C@@H](OS(=O)(=O)O)[C@@H]2OS(=O)(=O)O)[C@H]2C=C[C@@H](OS(=O)(=O)O)[C@@H](OS(=O)(=O)O)[C@@H]2OS(=O)(=O)O)[C@H]2C=C[C@@H](OS(=O)(=O)O)[C@@H](OS(=O)(=O)O)[C@@H]2OS(=O)(=O)O)C=C[C@H]1OS(=O)(=O)O = 20

---

Target: bFGF (Homo sapiens)
Sequence (P09038 134-288 limits assumed, species assumed): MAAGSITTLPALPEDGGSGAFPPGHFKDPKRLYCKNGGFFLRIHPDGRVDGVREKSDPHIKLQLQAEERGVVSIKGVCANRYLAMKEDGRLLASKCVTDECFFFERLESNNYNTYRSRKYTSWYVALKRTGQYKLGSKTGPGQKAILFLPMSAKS
Assay: Biacore biosensor: inhibition of bFGF binding to immobilised heparin and heparan sulfate
Settings: immobilised heparin; read-out: IC50, inhibition of bFGF binding (Hep)
# Lookup of reported IC50 keyed by entry
metric: IC50

* O=S(=O)(O)OC1C(OS(=O)(=O)O)C(OS(=O)(=O)O)C(N(Cc2cccc(CN(C3C(OS(=O)(=O)O)C(OS(=O)(=O)O)C(OS(=O)(=O)O)C(OS(=O)(=O)O)C3OS(=O)(=O)O)C3C(OS(=O)(=O)O)C(OS(=O)(=O)O)C(OS(=O)(=O)O)C(OS(=O)(=O)O)C3OS(=O)(=O)O)c2)C2C(OS(=O)(=O)O)C(OS(=O)(=O)O)C(OS(=O)(=O)O)C(OS(=O)(=O)O)C2OS(=O)(=O)O)C(OS(=O)(=O)O)C1OS(=O)(=O)O (centres unmarked) | 160 nM
* O=S(=O)(O)O[C@H]1[C@H](OS(=O)(=O)O)[C@@H](N(CCN([C@H]2C=C[C@@H](OS(=O)(=O)O)[C@@H](OS(=O)(=O)O)[C@@H]2OS(=O)(=O)O)[C@H]2C=C[C@@H](OS(=O)(=O)O)[C@@H](OS(=O)(=O)O)[C@@H]2OS(=O)(=O)O)[C@H]2C=C[C@@H](OS(=O)(=O)O)[C@@H](OS(=O)(=O)O)[C@@H]2OS(=O)(=O)O)C=C[C@H]1OS(=O)(=O)O | > 250 nM
* O=S(=O)(O)O[C@H]1[C@H](OS(=O)(=O)O)[C@@H](N(CCCN([C@H]2C=C[C@@H](OS(=O)(=O)O)[C@@H](OS(=O)(=O)O)[C@@H]2OS(=O)(=O)O)[C@H]2C=C[C@@H](OS(=O)(=O)O)[C@@H](OS(=O)(=O)O)[C@@H]2OS(=O)(=O)O)[C@H]2C=C[C@@H](OS(=O)(=O)O)[C@@H](OS(=O)(=O)O)[C@@H]2OS(=O)(=O)O)C=C[C@H]1OS(=O)(=O)O | > 250 nM
* O=S(=O)(O)O[C@H]1[C@H](OS(=O)(=O)O)[C@@H](N(CCCCN([C@H]2C=C[C@@H](OS(=O)(=O)O)[C@@H](OS(=O)(=O)O)[C@@H]2OS(=O)(=O)O)[C@H]2C=C[C@@H](OS(=O)(=O)O)[C@@H](OS(=O)(=O)O)[C@@H]2OS(=O)(=O)O)[C@H]2C=C[C@@H](OS(=O)(=O)O)[C@@H](OS(=O)(=O)O)[C@@H]2OS(=O)(=O)O)C=C[C@H]1OS(=O)(=O)O | > 250 nM
* O=S(=O)(O)OC1C(OS(=O)(=O)O)C(OS(=O)(=O)O)C(N(CCCCCCCCCCN(C2C(OS(=O)(=O)O)C(OS(=O)(=O)O)C(OS(=O)(=O)O)C(OS(=O)(=O)O)C2OS(=O)(=O)O)C2C(OS(=O)(=O)O)C(OS(=O)(=O)O)C(OS(=O)(=O)O)C(OS(=O)(=O)O)C2OS(=O)(=O)O)C2C(OS(=O)(=O)O)C(OS(=O)(=O)O)C(OS(=O)(=O)O)C(OS(=O)(=O)O)C2OS(=O)(=O)O)C(OS(=O)(=O)O)C1OS(=O)(=O)O (centres unmarked) | > 250 nM

---

# Lookup of reported inhibition keyed by entry
Target: human platelet heparanase (Homo sapiens)
Construct: 10 ng of purified human platelet heparanase; from tissue; host or cells: human platelets
Experiment: Heparanase inhibition, 3H-radiolabelled HS cleavage assay
Format: biochemical
Details: based on a comparison with heparin with 100% inhibition at 30 μg/ml; read-out: Relative inhibition (%)
metric: inhibition (%)

• O=S(=O)(O)O[C@H]1[C@H](OS(=O)(=O)O)[C@@H](N(CCCCN([C@H]2C=C[C@@H](OS(=O)(=O)O)[C@@H](OS(=O)(=O)O)[C@@H]2OS(=O)(=O)O)[C@H]2C=C[C@@H](OS(=O)(=O)O)[C@@H](OS(=O)(=O)O)[C@@H]2OS(=O)(=O)O)[C@H]2C=C[C@@H](OS(=O)(=O)O)[C@@H](OS(=O)(=O)O)[C@@H]2OS(=O)(=O)O)C=C[C@H]1OS(=O)(=O)O [Compound 4g] = 57
• O=S(=O)(O)O[C@H]1[C@H](OS(=O)(=O)O)[C@@H](N(CCCN([C@H]2C=C[C@@H](OS(=O)(=O)O)[C@@H](OS(=O)(=O)O)[C@@H]2OS(=O)(=O)O)[C@H]2C=C[C@@H](OS(=O)(=O)O)[C@@H](OS(=O)(=O)O)[C@@H]2OS(=O)(=O)O)[C@H]2C=C[C@@H](OS(=O)(=O)O)[C@@H](OS(=O)(=O)O)[C@@H]2OS(=O)(=O)O)C=C[C@H]1OS(=O)(=O)O [Compound 4a] = 60
• O=S(=O)(O)O[C@H]1[C@H](OS(=O)(=O)O)[C@@H](N(CCCCCCCCCCN([C@H]2C=C[C@@H](OS(=O)(=O)O)[C@@H](OS(=O)(=O)O)[C@@H]2OS(=O)(=O)O)[C@H]2C=C[C@@H](OS(=O)(=O)O)[C@@H](OS(=O)(=O)O)[C@@H]2OS(=O)(=O)O)[C@H]2C=C[C@@H](OS(=O)(=O)O)[C@@H](OS(=O)(=O)O)[C@@H]2OS(=O)(=O)O)C=C[C@H]1OS(=O)(=O)O [Compound 4c] = 45

---

Target: human platelet heparanase (Homo sapiens)
Construct: 10 ng of purified human platelet heparanase; from tissue; host or cells: human platelets
Assay: Heparanase inhibition, 3H-radiolabelled HS cleavage assay
Assay type: biochemical
Settings: heparanase inhibition; read-out: EC50 (converted)
# Lookup of reported EC50 keyed by entry
metric: EC50 (µM)

* O=S(=O)(O)OC1C(OS(=O)(=O)O)C(OS(=O)(=O)O)C(N(CCCCCCN(C2C(OS(=O)(=O)O)C(OS(=O)(=O)O)C(OS(=O)(=O)O)C(OS(=O)(=O)O)C2OS(=O)(=O)O)C2C(OS(=O)(=O)O)C(OS(=O)(=O)O)C(OS(=O)(=O)O)C(OS(=O)(=O)O)C2OS(=O)(=O)O)C2C(OS(=O)(=O)O)C(OS(=O)(=O)O)C(OS(=O)(=O)O)C(OS(=O)(=O)O)C2OS(=O)(=O)O)C(OS(=O)(=O)O)C1OS(=O)(=O)O (stereo not drawn) | 5.92
* O=S(=O)(O)O[C@H]1[C@H](OS(=O)(=O)O)[C@@H](N(CCCCCCCCN([C@H]2C=C[C@@H](OS(=O)(=O)O)[C@@H](OS(=O)(=O)O)[C@@H]2OS(=O)(=O)O)[C@H]2C=C[C@@H](OS(=O)(=O)O)[C@@H](OS(=O)(=O)O)[C@@H]2OS(=O)(=O)O)[C@H]2C=C[C@@H](OS(=O)(=O)O)[C@@H](OS(=O)(=O)O)[C@@H]2OS(=O)(=O)O)C=C[C@H]1OS(=O)(=O)O | 16.1
* O=S(=O)(O)O[C@H]1[C@H](OS(=O)(=O)O)[C@@H](N(CCN([C@H]2C=C[C@@H](OS(=O)(=O)O)[C@@H](OS(=O)(=O)O)[C@@H]2OS(=O)(=O)O)[C@H]2C=C[C@@H](OS(=O)(=O)O)[C@@H](OS(=O)(=O)O)[C@@H]2OS(=O)(=O)O)[C@H]2C=C[C@@H](OS(=O)(=O)O)[C@@H](OS(=O)(=O)O)[C@@H]2OS(=O)(=O)O)C=C[C@H]1OS(=O)(=O)O | 11.1

Source listed as patent US7173019B2.
